# System: anti-GBM nephritic mice
# assay explanation: anti-GBM nephritic mice: proteinuria, serum cholesterol, blood urea nitrogen and serum creatinine
# Format: in vivo, BALB/c mice
# test context: 11th day; oral
recorded metric: Serum Parameter S-Ch (serum cholesterol)

COc1ccc(CCNC(=O)/C=C/c2cccnc2)cc1OC [Compound 55] : +++
N#C/C(=C\c1cccnc1)C(=O)NCCc1cccc(O)c1 [Compound 8] : -
COc1ccc(CCN(C)C(=O)/C=C/c2cccnc2)cc1OC [Compound 140] : ++
O=C(/C=C/c1cccnc1)NCCc1ccc(O)c(O)c1 [Compound 91] : ++
COc1ccc(CCN(C)C(=O)/C=C/c2cncc(Cl)c2)cc1OC [Compound 29] : ++
COc1cccc(CCNC(=O)/C=C/c2cccnc2)c1 [Compound 41] : +++
CCN(CCc1ccc(OC)c(OC)c1)C(=O)/C=C/c1cccnc1 [Compound 12] : +
COc1ccc(C(CN(C)C(=O)/C=C/c2cccnc2)=NO)cc1OC [Compound 156] : +

Field: next compound
Query block: Fill in Serum Parameter S-Ch (serum cholesterol) for record CCNC(=O)Oc1ccc(CCN(C)C(=O)/C=C/c2cccnc2)cc1OC(=O)NCC [Compound 133]
Result block: +

====

# Tested on: anti-GBM nephritic mice
# assay explanation: anti-GBM nephritic mice: proteinuria, serum cholesterol, blood urea nitrogen and serum creatinine
# Format: in vivo, BALB/c mice
# test context: 11th day; oral
recorded metric: Serum Parameter BUN (blood urea nitrogen)

N#C/C(=C\c1cccnc1)C(=O)NCCc1cccc(O)c1 [Compound 8] : -
COc1ccc(CN(C)C(=O)/C=C/c2cccnc2)cc1OC [Compound 20] : +
COc1cccc(CNC(=O)/C=C/c2cccnc2)c1 [Compound 42] : +
O=C(/C=C/c1cccnc1)NCCc1cc(O)ccc1O [Compound 89] : +
CCOC(=O)COc1ccc(CN(C)C(=O)/C=C/c2cccnc2)cc1 [Compound 95] : ++

Query block: Output measured Serum Parameter BUN (blood urea nitrogen) for this item: CCNC(=O)Oc1cccc(CCNC(=O)/C=C/c2cccnc2)c1 [Compound 127]
Result block: -

Query block: Supply Serum Parameter BUN (blood urea nitrogen) value. Item: Cl.N#C/C(=C\c1cccnc1)C(=O)NCCc1ccc(O)cc1 [Compound 6]
Result block: -

Query block: Note Serum Parameter BUN (blood urea nitrogen) for the compound shown: O=C(/C=C/c1cccnc1)NCCc1cccc(OCC(=O)NC2CCCC2)c1 [Compound 116]
Result block: ++

Query block: # return recorded Serum Parameter BUN (blood urea nitrogen) for input COc1cc(C(=O)CN(C)C(=O)/C=C/c2cccnc2)ccc1O [Compound 162]
Result block: -

====

# Tested on: anti-GBM nephritic mice
# assay explanation: anti-GBM nephritic mice: proteinuria, serum cholesterol, blood urea nitrogen and serum creatinine;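 also: minus not effective plus trend double p<0.05 triple p<0.01 quadruple p<0.001 improvement vs control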
# Assay type: in vivo, BALB/c mice
# test context: 11th day; oral
recorded metric: Serum Parameter S-Ch (serum cholesterol)

Below: 10 compounds and their reported Serum Parameter S-Ch (serum cholesterol).
O=C(/C=C/c1cccnc1)NCC(=O)c1cccc(O)c1 : ++
CCOC(=O)COc1cccc(C(=O)CNC(=O)/C=C/c2cccnc2)c1 : +
O=C(/C=C/c1cccnc1)NCCc1cccc(OCC(=O)NC2CCCC2)c1 : +
CCOC(=O)COc1cccc(CCNC(=O)/C=C/c2cccnc2)c1 [Compound 99] : -
COc1ccc(CCN(C)C(=O)/C=C/c2cccnc2)cc1OC [Compound 84] : ++
O=C(/C=C(/c1ccccc1)c1cccnc1)NCCc1cccc(O)c1 : ++
COC(=O)COc1ccccc1CCNC(=O)/C=C/c1cccnc1 : -
COc1cc(CCN(C)C(=O)/C=C/c2cccnc2)cc(OC)c1OC.Cl : +
CCNC(=O)Oc1cccc(CCNC(=O)/C=C/c2cccnc2)c1 : ++
COc1cc(C(O)CN(C)C(=O)/C=C/c2cccnc2)ccc1O (centres unmarked) : +

Query block: Specify reported Serum Parameter S-Ch (serum cholesterol) for the compound shown: COc1ccc(O)c(CCNC(=O)/C=C/c2cccnc2)c1
Result block: +++

Query block: Report Serum Parameter S-Ch (serum cholesterol), nothing else, for this compound: COc1ccc(CCN(C)C(=O)/C=C/c2cccnc2)cc1
Result block: +

Query block: Report measured Serum Parameter S-Ch (serum cholesterol); entry is COc1cccc(CCN(C)C(=O)/C=C/c2cccnc2)c1OC
Result block: -

Query block: Identify Serum Parameter S-Ch (serum cholesterol) associated with the compound Cl.N#C/C(=C\c1cccnc1)C(=O)NCCc1ccc(O)cc1
Result block: +

Query block: Write down Serum Parameter S-Ch (serum cholesterol) measured for item CN(CCc1ccc(O)c(O)c1)C(=O)/C=C/c1cccnc1
Result block: ++

Query block: Specify measured Serum Parameter S-Ch (serum cholesterol) for COc1cccc(CNC(=O)/C=C/c2cccnc2)c1 .
Result block: -

Query block: Please supply the value of reported Serum Parameter S-Ch (serum cholesterol) for the item O=C(/C=C/c1cccnc1)NCCc1ccc(O)cc1
Result block: -

Query block: Answer with the recorded Serum Parameter S-Ch (serum cholesterol) for the compound listed here: COc1ccc(CCN(C)C(=O)/C(C#N)=C/c2cccnc2)cc1OC
Result block: -

Query block: Fill in reported Serum Parameter S-Ch (serum cholesterol) for this entry: COc1ccc(CN(C)C(=O)/C=C/c2cccnc2)cc1OC
Result block: +

Query block: Report Serum Parameter S-Ch (serum cholesterol), nothing else, for this compound: O=C(/C=C/c1cccnc1)NCCc1ccccc1O [Compound 38]
Result block: ++

====

# System: anti-GBM nephritic mice
# assay explanation: anti-GBM nephritic mice: proteinuria, serum cholesterol, blood urea nitrogen and serum creatinine;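 also: minus not effective plus trend double p<0.05 triple p<0.01 quadruple p<0.001 improvement vs control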
# Assay type: in vivo, BALB/c mice
# test context: 11th day; oral
recorded metric: Serum Parameter S-Ch (serum cholesterol)

O=C(/C=C/c1cccnc1)NCCc1cccc(O)c1 [Compound 81] : +++
COc1ccc(C(=O)CN(C)C(=S)/C=C/c2cccnc2)cc1OC [Compound 165] : +++
CCOC(=O)COc1ccc(CN(C)C(=O)/C=C/c2cccnc2)cc1 [Compound 95] : +
COc1ccc(CCN(C)C(=O)/C(C)=C/c2cccnc2)cc1OC [Compound 62] : +++
COc1ccc(C(=O)CN(C)C(=O)/C=C/c2cccnc2)cc1OC [Compound 155] : +++
CCOC(=O)COc1ccc(CCNC(=O)/C=C/c2cccnc2)cc1 [Compound 101] : -

Query block: Name the recorded Serum Parameter S-Ch (serum cholesterol) of the item COc1ccc(OC)c(CCN(C)C(=O)/C=C/c2cccnc2)c1 [Compound 15] in your answer.
Result block: +

Query block: Supply Serum Parameter S-Ch (serum cholesterol) value. Item: CCOC(=O)COc1cccc(C(O)CNC(=O)/C=C/c2cccnc2)c1 (stereo not drawn) [Compound 159]
Result block: +

Query block: Given O=C(/C=C/c1cccnc1)NCCc1ccccc1O [Compound 70] , respond with its Serum Parameter S-Ch (serum cholesterol).
Result block: +++

====

# Tested on: anti-GBM nephritic mice
# assay explanation: anti-GBM nephritic mice: proteinuria, serum cholesterol, blood urea nitrogen and serum creatinine;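 also: minus not effective plus trend double p<0.05 triple p<0.01 quadruple p<0.001 improvement vs control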
# Format: in vivo, BALB/c mice
# test context: 11th day; oral
recorded metric: Serum Parameter BUN (blood urea nitrogen)

Some solved entries appear below for comparison.
COc1ccc(CCN(C)C(=O)/C(C#N)=C/c2cccnc2)cc1OC : -
COC(=O)c1cncc(/C=C/C(=O)N(C)CCc2ccc(OC)c(OC)c2)c1 : -
CCOC(=O)COc1cccc(C(O)CNC(=O)/C=C/c2cccnc2)c1 (centres unmarked) : -
COc1cc(C(O)CN(C)C(=O)/C=C/c2cccnc2)ccc1O (centres unmarked) : -

Now turn to the next compound.
Query block: Tell us which Serum Parameter BUN (blood urea nitrogen) value is on record for COc1ccc(OC)c(CCN(C)C(=O)/C=C/c2cccnc2)c1
Result block: +

====

# Tested on: anti-GBM nephritic mice
# assay explanation: anti-GBM nephritic mice: proteinuria, serum cholesterol, blood urea nitrogen and serum creatinine;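 also: minus not effective plus trend double p<0.05 triple p<0.01 quadruple p<0.001 improvement vs control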
# Format: in vivo, BALB/c mice
# test context: 11th day; oral
recorded metric: Serum Parameter S-Ch (serum cholesterol)

CN(CCc1ccc(Cl)c(Cl)c1)C(=O)/C=C/c1cccnc1 : +++
O=C(/C=C/c1cccnc1)NCCc1cccc(O)c1 [Compound 75] : ++
CSc1ccc(CCN(C)C(=O)/C=C/c2cccnc2)cc1 : -
COc1ccc(CCN(C)C(=O)/C=C/c2cccnc2)c(OC)c1 : +
COC(=O)c1cncc(/C=C/C(=O)N(C)CCc2ccc(OC)c(OC)c2)c1 : ++

Query block: Please supply the value of reported Serum Parameter S-Ch (serum cholesterol) for the item COc1cc(CCN(C)C(=O)/C=C/c2cccnc2)cc(OC)c1
Result block: ++

Query block: Determine from records and report Serum Parameter S-Ch (serum cholesterol) for COc1cc(C(=O)CN(C)C(=O)/C=C/c2cccnc2)ccc1O
Result block: +

Query block: Note down Serum Parameter S-Ch (serum cholesterol) recorded for CNC(=O)COc1cccc(CCNC(=O)/C=C/c2cccnc2)c1
Result block: +++

Query block: Give a short answer stating reported Serum Parameter S-Ch (serum cholesterol) for CN(CCc1ccc(-c2ccccc2)cc1)C(=O)/C=C/c1cccnc1 .
Result block: +
